From: paper PMC11931385

target-or-test-system: T1, Rb^P R763T (human, UniProt P06400 380-788, R763T)
T1 construct: also called variant 75
T1 sequence (looked up): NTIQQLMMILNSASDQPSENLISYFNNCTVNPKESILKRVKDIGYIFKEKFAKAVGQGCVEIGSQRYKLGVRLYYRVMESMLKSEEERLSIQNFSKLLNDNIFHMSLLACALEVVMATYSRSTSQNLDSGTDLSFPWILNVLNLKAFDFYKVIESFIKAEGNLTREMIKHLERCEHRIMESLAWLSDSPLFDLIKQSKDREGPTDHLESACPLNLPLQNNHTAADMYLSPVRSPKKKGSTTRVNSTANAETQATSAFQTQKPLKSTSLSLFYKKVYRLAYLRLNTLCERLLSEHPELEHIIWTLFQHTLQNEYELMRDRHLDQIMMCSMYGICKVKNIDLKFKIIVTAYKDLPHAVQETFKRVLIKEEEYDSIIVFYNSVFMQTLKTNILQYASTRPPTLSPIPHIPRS
assay-name: fluorescence polarisation; 25 °C; unlabeled Rb^P titrated against 1.5 nM TMR-E2F1^TD or 7.5 nM TMR-E7^LxCxE; 25 mM Tris pH 8.0, 200 mM NaCl, 1 mM DTT, 0.1% Tween-20; 2 min incubation; quadratic fit; apparent Kd for the variants, Kd for WT
applied-conditions: both partners purified
No end group written: not given here. TMR = tetramethyl rhodamine dye
attribute-measured: pKd
API: returns pKd as number; meaning -log10 of concentration in mol/L.

[[record]]
binder = "DLYCYEQLN (also: TMR label, position not given here, source: synthetic peptide, bought: GenScript) [TMR-E7^LxCxE, LxCxE peptide of the E7 oncoprotein from HPV]"
data_value = 7.68


Look at this binder and give its reported pKd. {TMR}-GEGIRDLFDCDFGDLTPLD (also called E2F^TD; source: synthetic peptide, bought: GenScript) [TMR-E2F1^TD, peptide of the E2F1 transactivation domain] 7.43
